From: patent US8735414B2

Below: a set of entries, each annotated with reported melting point.

Worked set:
**Query** Would you kindly share the measured melting point for Cc1cc(-c2c(C#N)c3cc(F)ccc3n2-c2ncccn2)ncc1S(=O)(=O)N[C@@H](C)C(F)(F)F [compound 848] ?
**Result** 199 to 204 °C

**Query** Would you kindly share the measured melting point for CCc1cc2c(cc1F)c(C#N)c(-c1ccc(S(=O)(=O)NC3(C)CC3)cn1)n2-c1ncccn1 [compound 860] ?
**Result** 169 to 179 °C

**Query** Would you kindly share the measured melting point for Cc1ccc2c(C#N)c(-c3ccc(S(=O)(=O)NC4(C(F)(F)F)CCC4)cn3)n(C3CCC3)c2c1 [compound 587] ?
**Result** 228 to 232 °C

**Query** Would you kindly share the measured melting point for Cc1cc2c(cc1O)c(C#N)c(-c1ccc(S(=O)(=O)N[C@@H](C)C(F)(F)F)cn1)n2C1CCC1 [compound 796] ?
**Result** 193 to 195 °C

**Query** Would you kindly share the measured melting point for Cc1cc2cc(-c3ccc(S(=O)(=O)N[C@@H](C)C(F)(F)F)cn3)n(C3CCC3)c2cc1OC(F)F [compound 646] ?
**Result** 151 to 153 °C

**Query** Would you kindly share the measured melting point for CCc1ccc2c(C#N)c(-c3ccc(S(=O)(=O)NC(CF)CF)cn3)n(C3CCC3)c2c1 [compound 48] ?
**Result** 201 to 202 °C

For the next question, use this compound.
**Query** Would you kindly share the measured melting point for CCc1cc2c(cc1F)c(C(N)=O)c(-c1ccc(S(=O)(=O)N[C@@H](C)C(F)(F)F)cn1)n2-c1cc(Cl)ccn1 [compound 1048] ?
**Result** 200 to 204 °C

* * *

Below: a set of entries, each annotated with reported melting point.

**Query** Would you kindly share the measured melting point for Cc1ccc2c(C#N)c(-c3ncc(S(=O)(=O)NC(C)C)cn3)n(C3CCCCC3)c2c1 ?
**Result** 196 to 201 °C

**Query** Would you kindly share the measured melting point for Cc1c(F)cc2c(C#N)c(-c3ncc(S(=O)(=O)NC(CF)CF)cn3)n(C3CCCC3)c2c1F ?
**Result** 230 to 234 °C

**Query** Would you kindly share the measured melting point for Cc1cc2c(cc1F)c(C(=O)O)c(-c1ncc(S(=O)(=O)NC(C)(C)C)cn1)n2C1CCC1 ?
**Result** 194 to 201 °C

New cases:
**Query** Would you kindly share the measured melting point for N#Cc1c(-c2ccc(S(=O)(=O)NC(CF)CF)cn2)n(-c2ccccn2)c2ccc(Cl)cc12 ?
**Result** 187 to 188 °C

* * *

Below: a set of entries, each annotated with reported melting point.

Worked set:
**Query** Would you kindly share the measured melting point for Cc1ccc2c(C#N)c(-c3ccc(S(=O)(=O)NC(C)(C)C(F)(F)F)cn3)n(-c3ccccn3)c2c1 ?
**Result** 208 to 209 °C

**Query** Would you kindly share the measured melting point for Cc1cc2c(C#N)c(-c3ccc(S(=O)(=O)N[C@@H](C)C(F)(F)F)cn3)n(-c3ncc(F)cn3)c2cc1F ?
**Result** 226 to 231 °C

**Query** Would you kindly share the measured melting point for CC(C)(C)NS(=O)(=O)c1ccc(-c2c(C#N)c3cc(OC(F)F)ccc3n2C2CCC2)nc1 ?
**Result** 167 to 170 °C

**Query** Would you kindly share the measured melting point for N#Cc1c(-c2ccc(S(=O)(=O)NC3(C(F)(F)F)CC3)cn2)n(C2CCCC2)c2cc(OC(F)F)ccc12 ?
**Result** 186 to 193 °C

**Query** Would you kindly share the measured melting point for Cc1c(F)cc2c(c1F)c(C#N)c(-c1ccc(S(=O)(=O)N[C@@H](C)C(F)(F)F)cn1)n2C1CCC1 ?
**Result** 181 to 186 °C

**Query** Would you kindly share the measured melting point for Cc1ccc2c(C#N)c(-c3ccc(S(=O)(=O)NC(CF)CF)cn3)n(C3CCCC3)c2c1F ?
**Result** 211 to 216 °C

For the next question, use this compound.
**Query** Would you kindly share the measured melting point for Cc1ccc2c(C#N)c(-c3ccc(S(=O)(=O)NC4CC(F)(F)C4)cn3)n(C3CCC3)c2c1 ?
**Result** 165 to 166 °C
